We begin with a simple list: items and their reported pIC50.
Target: JAK3 (a.a. 781-1124) (Homo sapiens (Human))
Sequence (P52333 781-1124): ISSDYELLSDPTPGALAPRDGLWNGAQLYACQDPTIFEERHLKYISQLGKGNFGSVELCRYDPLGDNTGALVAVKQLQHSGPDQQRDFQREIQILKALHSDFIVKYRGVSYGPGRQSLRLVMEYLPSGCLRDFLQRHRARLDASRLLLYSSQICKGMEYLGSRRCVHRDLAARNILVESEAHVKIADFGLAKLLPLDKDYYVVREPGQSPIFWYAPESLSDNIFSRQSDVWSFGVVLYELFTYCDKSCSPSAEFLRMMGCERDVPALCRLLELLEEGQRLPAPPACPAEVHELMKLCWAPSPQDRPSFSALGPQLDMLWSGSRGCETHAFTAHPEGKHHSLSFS
pIC50: −log10 of the molar value.

N#CCC(=O)N1CCC[C@@H](Nc2c(-c3ccnc(N)n3)cnc3[nH]ccc23)C1; ≥ 8.00

Now let's try a different one.
I looked up `C[C@H]1CC[C@@H](Nc2c(-c3ncco3)cnc3[nH]ccc23)CN1C(=O)CC#N` and its pIC50 for JAK3 (a.a. 781-1124) (Homo sapiens (Human)) was ≥ 8.00

* * *

Test system: IL-2 stimulated STAT5 phosphorylation on Tyr694 (JAK1/3)
Test: JAK1/3 cellular target modulation: IL-2 stimulated phospho-STAT5 in PBMC
Assay type: cell-based
Conditions: human PBMC, IL-2 25 ng/ml; read-out: IL2-STAT5 IC50
We begin with a simple list: items and their reported IC50.

Some entries whose results are on file:
CNC(=O)c1ccnc(-c2cnc3[nH]ccc3c2N[C@@H]2CCCN(C(=O)CC#N)C2)c1; > 1000 nM
C[C@H]1C[C@@H](Nc2c(-c3nccs3)cnc3[nH]ccc23)CN(CC2CC2(F)F)C1 (some centres unmarked); 100 to 1000 nM
N#CCC(=O)N1CCC[C@@H](Nc2c(-c3ncco3)cnc3[nH]ccc23)C1; ≤ 100 nM
CN(C)S(=O)(=O)Nc1ccnc(-c2cnc3[nH]ccc3c2N[C@@H]2CCCN(C(=O)CC#N)C2)c1; > 1000 nM

Recorded IC50 (compound `CNC(=O)c1coc(-c2cnc3[nH]ccc3c2N[C@@H]2CCCN(C(=O)CC#N)C2)n1` ): ≤ 100 nM

Recorded IC50 (compound `CS(=O)(=O)c1cnc(-c2cnc3[nH]ccc3c2N[C@@H]2CCCN(C(=O)CC#N)C2)s1` ): ≤ 100 nM

Recorded IC50 (compound `N#CCC(=O)N1CCC[C@@H](Nc2c(-c3cccc(N)n3)cnc3[nH]ccc23)C1` ): 100 to 1000 nM

Recorded IC50 (compound `N#CCC(=O)N1CCC[C@@H](Nc2c(-c3ccn(CCO)n3)cnc3[nH]ccc23)C1` ): ≤ 100 nM

src = patent US11420966B2
